assaySystem: T1, Pro-C1s
T1 construct: also called purified pro-C1s protein
T1 chain: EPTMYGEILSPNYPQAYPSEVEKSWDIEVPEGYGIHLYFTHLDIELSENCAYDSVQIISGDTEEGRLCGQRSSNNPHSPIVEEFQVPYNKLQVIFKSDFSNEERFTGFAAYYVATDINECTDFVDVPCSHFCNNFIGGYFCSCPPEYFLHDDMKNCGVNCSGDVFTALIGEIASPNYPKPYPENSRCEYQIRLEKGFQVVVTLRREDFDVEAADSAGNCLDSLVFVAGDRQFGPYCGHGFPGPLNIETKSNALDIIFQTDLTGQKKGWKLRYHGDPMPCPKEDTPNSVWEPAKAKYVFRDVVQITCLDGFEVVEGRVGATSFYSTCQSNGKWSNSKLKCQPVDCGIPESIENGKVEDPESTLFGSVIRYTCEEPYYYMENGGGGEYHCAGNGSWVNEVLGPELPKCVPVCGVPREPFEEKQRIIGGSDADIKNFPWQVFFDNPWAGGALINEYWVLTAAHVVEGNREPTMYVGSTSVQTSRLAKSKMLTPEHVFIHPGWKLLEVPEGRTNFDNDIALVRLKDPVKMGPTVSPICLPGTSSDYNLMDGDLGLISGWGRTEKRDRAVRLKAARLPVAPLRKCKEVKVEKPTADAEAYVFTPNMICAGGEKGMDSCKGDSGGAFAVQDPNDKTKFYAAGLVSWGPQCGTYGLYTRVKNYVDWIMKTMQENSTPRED
protocolDetails: bio-layer interferometry (BLI), kinetic analysis
Give measured kon for each item. Keep answers brief.
Provide the measurement as a number trailed by its unit.

Identify measured kon associated with antibody IPN-M24 (antibody, V domains shown, Mouse monoclonal antibody (NZBW hybridoma)) VH: EVKLQQSGAELVRPGVSVKISCKVSGYTFTDYAMHCVKQSHAKSLEWIGVISIYNGDASYNQKFKDKATMTVDKSSSTSYMDLARLTSEESAVYNCVREAPYLITTVFYAMDYWGQGTSVTVSS VL: DIVMTQSPAIMSASPGEKVTMTCSANSSISYMHWYQQKPGTSPKRWIYDTSKLASGVPTRFSGSGSGTSYSLTISSMEAEDAATYYCHQRSFYLTFGSGTKLEIK
80800 M⁻¹ s⁻¹

// fetch kon given entry antibody IPN-M3 (antibody, V domains shown, Mouse monoclonal antibody (NZBW hybridoma); Same VL and VH as IPN-M1 and IPN-M13) VH: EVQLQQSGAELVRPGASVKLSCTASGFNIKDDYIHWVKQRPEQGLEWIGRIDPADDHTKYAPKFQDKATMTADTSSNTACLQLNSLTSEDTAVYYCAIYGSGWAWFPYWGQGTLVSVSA VL: DIVLTQSTDYLAVSLGQRATISCKASQSVDYDGDSYMNWYQQKPGQPPKLLIYAASNLESGIPARFSGSGSGTDFTLNIHPVEEEDAATYYCQQSNEDPWTFGGGTKLEIK
4040 M⁻¹ s⁻¹

Kindly indicate its recorded kon. Item: antibody IPN-M33 (antibody, V domains shown, Mouse monoclonal antibody (NZBW hybridoma)) VH: QVKLQQSGPELVKPGTSVRISCKTSGYSFTGYYMHWVKQSPEKSLEWIGEINPSIGDITYNQRFKAKATLTVDKSSSTAYMQLKSLTSEDSAVYYCASDYYGGGFAWFAYWGQGTLVTVSA VL: DIVMTQSPAIMSASSGEKVTMTCSASSSINYMHWYQQKPGTSPKRWIYDTSKLASGVPARFSGSGSGTSYSLTISSMEAEDTATYYCHQRSDSLTFGSGTKLEIK
83800 M⁻¹ s⁻¹

Using known records, supply kon for antibody IPN-M9 (antibody, V domains shown, Mouse monoclonal antibody (NZBW hybridoma)) VH: QVQLQQPGAELVRPGASVKLSCKVSGYTFTRYWMHWVKQRPGQGLEWIGEINPSNSDTDYNEEFKSKATLTVDKSSSTAYMHLSSLTSEDSAVYYCTIDDSAYGWFAYWGQGTLVTVSA VL: DIVMTQSPAIMSASPGERVTMTCSASSSISYMHWYHQKPGTSPKRWIYDTSKLASGVPARFSGSGSGTSYSLTISSMEAEDAATYYCHQRSSFPTFGAGTKLELK
63700 M⁻¹ s⁻¹

Specify kon for antibody IPN-M27 (antibody, V domains shown, Mouse monoclonal antibody (NZBW hybridoma)) VH: QVQLQQSGAELVRPGASVKLSCKVSGYTFTRYWMHWVKQRPGQGLEWIGEINPSNSDTDYNEEFKSKATLTVDKSSSTAYMHLSNLTSEDSAVYYCTIDDSAYGWFAYWGQGTLVTVSA VL: DIVLTQSTAIMSASPGERVTMTCSASSSISYMHWYHQKPGTSPKRWIYDTSKLASGVPARFSGSGSGTSYSLAISSMEAEDAATYYCHQRSSFPTFGAGTKLELK and stop.
25400 M⁻¹ s⁻¹

Hello, the source for this data is patent US20200079876A1, in case you need it.
